B1: EHEE_rd4_0086 (parent)
chain: EIHIRTNGEEQARKVYKMLAKRNYDVKIEQHNGQWVVTAS

# Variants of: B1
# assay_summary: folding stability dG (cDNA display proteolysis); higher = more stable
# study_conditions: PBS, room temperature
Outcome label depends on folding stability dG relative to 1 kcal/mol: at/above gives criterion met, below gives criterion not met.

1. E10N : criterion met
2. S40K : criterion met
3. T6Q : criterion not met
4. Q30F : criterion met
5. A20F : criterion met
6. A12G : criterion not met
7. T6S : criterion met
8. E9A : criterion met
9. E1G : criterion met
10. T6H : criterion not met
11. A20H : criterion met
12. R5I : criterion met
13. K14Q : criterion met
14. Q11Y : criterion met
15. K14R : criterion met
16. E1L : criterion met
17. A20Q : criterion met
18. I2P : criterion not met
19. Y16V : criterion met
20. N32H : criterion met
21. W35L : criterion not met
22. Y24E : criterion not met
23. R22E : criterion met
24. A20T : criterion met
25. V37W : criterion not met
26. Y24K : criterion met
27. S40N : criterion met
28. H3A : criterion met
29. K17N : criterion met
30. E9Q : criterion met
31. N7T : criterion met
32. S40P : criterion met
33. I28L : criterion met
34. T6I : criterion met
35. Q11P : criterion not met
36. I2A : criterion not met
